Would you kindly list IC50 for each of these compounds?
system: Ba/F3 cells KRAS G12D; test: Ba/F3 proliferation assay (KRAS G12D); format: cell-based; settings: Mus musculus, BaF3, 72 h, AlamarBlue viability
Give bare numbers, in µM.

{"Compound": "C[C@H](Oc1nc(-c2onc3c2CCC[C@@]32CCCc3sc(N)c(C#N)c32)nc2c1n(C)c(=O)n2C1CCOCC1)[C@@H]1CCCN1C [I-10]", "Target Desc": "Ba/F3 cells KRAS G12D", "Reading Unit": "µM", "IC50": 0.118}

Would you mind giving IC50 for every compound in the list below?
1. C[C@H](Oc1nc(-c2onc3c2CCC[C@@]32CCCc3sc(N)c(C#N)c32)nc2c1n(C)c(=O)n2[C@@H]1CCOC1)[C@@H]1CC[C@H](C)N1C [I-26]
2. C[C@H](Oc1nc(-c2noc3c2CCC[C@@]32CCCc3sc(N)c(C#N)c32)nc2c1n(C)c(=O)n2[C@@H]1CCOC1)[C@@H]1CCCN1C [II-2]
3. C[C@H](Oc1nc(-c2onc3c2CCC[C@@]32CCCc3sc(N)c(C#N)c32)nc2c1n(C)c(=O)n2[C@H]1CCOC1)[C@@H]1CCCN1C [I-9]
4. C[C@H](Oc1nc(-c2onc3c2CCC[C@@]32CCCc3sc(N)c(C#N)c32)nc2c1CN(C1COC1)C[C@]21CCOC1)[C@@H]1CCCN1C [I-56]
5. C[C@H](Oc1nc(-c2onc3c2CCC[C@@]32CCCc3sc(N)c(C#N)c32)nc2c1n(C)c(=O)n2[C@H]1CCC[C@@H]1O)[C@@H]1CCCN1C [I-19]

Marked response:
[0.005, 0.009, 0.046, 0.013, 0.47]

* * *

test system: MKN1 cells; assay: MKN1 CTG proliferation assay (120 h) (gastric cancer, wt amplified); assay type: cell-based; settings: Homo sapiens, MKN-1
Parameter: pIC50
Numbers only, as −log10 of the molar value.

Here are 3 compounds together with their reported answers.
{"Record Smiles": "C[C@H](Oc1nc(-c2noc3c2CCC[C@@]32CCCc3sc(N)c(C#N)c32)nc2c1CCCO[C@]21CCOC1)[C@@H]1CCCN1C", "Numeric Result": 8.00}
{"Record Smiles": "C[C@H](Oc1nc(-c2onc3c2CCC[C@@]32CCCc3sc(N)c(C#N)c32)nc2c1ncn2[C@@H]1CCOC1)[C@@H]1CCCN1C", "Numeric Result": 7.49}
{"Record Smiles": "CO[C@H]1CCN(C)[C@@H]1[C@H](C)Oc1nc(-c2noc3c2CCC[C@@]32CCCc3sc(N)c(C#N)c32)nc2c1n(C)c(=O)n2[C@@H]1CCOC1", "Numeric Result": 8.22}

Proceeding to the next compound to report its pIC50.
Exam item: What value of pIC50 has been reported for the following compound? "COCCn1c(=O)n(C)c2c(O[C@@H](C)[C@@H]3CCCN3C)nc(-c3onc4c3CCC[C@@]43CCCc4sc(N)c(C#N)c43)nc21"
Marked response: 6.43

* * *

Would you kindly list solubility at 24 h for each of these compounds?
experiment: Solubility measurement (DMSO solution precipitation method); assay type: physicochemical; conditions: aqueous buffer, kinetic from dmso stock, McIlvaine buffer pH 6.8, 24 h, read-out: solubility pH 6.8
Answers are plain numbers, in µg/mL.

Here are 5 compounds together with their reported answers.
{"Compound": "CO[C@@H]1C[C@@H]([C@H](C)Oc2nc(-c3noc4c3CCC[C@@]43CCCc4sc(N)c(C#N)c43)nc3c2COC[C@]32CCOC2)N(C)C1 [II-11]", "Numeric Result": 45}
{"Compound": "C[C@H](Oc1nc(-c2onc3c2CCC[C@@]32CCCc3sc(N)c(C#N)c32)nc2c1N(C)C(=O)CN2[C@@H]1CCOC1)[C@@H]1CCCN1C [I-37]", "Numeric Result": 113}
{"Compound": "C[C@H](Oc1nc(-c2onc3c2CCC[C@@]32CCCc3sc(N)c(C#N)c32)nc2c1n(C)c(=O)n2[C@H]1CCCOC1)[C@@H]1CCCN1C [I-11]", "Numeric Result": 99}
{"Compound": "CO[C@@H]1C[C@@H]([C@H](C)Oc2nc(-c3noc4c3CCC[C@@]43CCCc4sc(N)c(C#N)c43)nc3c2n(C)c(=O)n3[C@@]23COC[C@@H]2C3)N(C)C1 [II-6]", "Numeric Result": 62}
{"Compound": "C[C@H](Oc1nc(-c2onc3c2CCC[C@@]32CCCc3sc(N)c(C#N)c32)nc2c1n(C)c(=O)n2[C@H]1CO[C@@H](C)C1)[C@@H]1CCCN1C [I-47]", "Numeric Result": 101}

Would you mind giving solubility at 24 h for every compound in the list below?
1. C[C@H](Oc1nc(-c2onc3c2CCC[C@@]32CCCc3sc(N)c(C#N)c32)nc2c1n(C)c(=O)n2[C@H]1CO[C@@H](C)C1)[C@@H]1CC[C@H](C)N1C [I-50]
2. C[C@H](Oc1nc(-c2onc3c2CCC[C@@]32CCCc3sc(N)c(C#N)c32)nc2c1n(C)c(=O)n2[C@@H]1CC2CCC1O2)[C@@H]1CCCN1C (stereo partly drawn) [I-18]

Marked response:
1. 103
2. 97

* * *

test system: SK-CO-1 cells; assay: SK-CO-1 CTG proliferation assay (120 h) (CRC, G12V); type: cell-based; settings: Homo sapiens
pIC50: −log10 of the molar value.
Assign Condition met to entries whose pIC50 meets or exceeds 7; assign Condition not met to the rest.

{"Record Smiles": "C[C@H](Oc1nc(-c2noc3c2CCC[C@@]32CCCc3sc(N)c(C#N)c32)nc2c1CCO[C@]21CCOC1)[C@@H]1CCCN1C", "Answer Label": "Condition met"}
{"Record Smiles": "CO[C@@H]1C[C@@H]([C@H](C)Oc2nc(-c3onc4c3CCC[C@@]43CCCc4sc(N)c(C#N)c43)nc3c2n(C)c(=O)n3[C@@]23COC[C@@H]2C3)N(C)C1", "Answer Label": "Condition met"}
{"Record Smiles": "CO[C@H]1CCN(C)[C@@H]1[C@H](C)Oc1nc(-c2noc3c2CCC[C@@]32CCCc3sc(N)c(C#N)c32)nc2c1CN(C1COC1)C[C@]21CCOC1", "Answer Label": "Condition met"}
{"Record Smiles": "CO[C@H]1CCN(C)[C@@H]1[C@H](C)Oc1nc(-c2noc3c2CCC[C@@]32CCCc3sc(N)c(C#N)c32)nc2c1n(C)c(=O)n2[C@@H]1CCOC1", "Answer Label": "Condition met"}
{"Record Smiles": "C[C@H](Oc1nc(-c2onc3c2CCC[C@@]32CCCc3sc(N)c(C#N)c32)nc2c1cnn2[C@@H]1CCOC1)[C@@H]1CCCN1C", "Answer Label": "Condition met"}
{"Record Smiles": "CO[C@H]1CCN(C)[C@@H]1[C@H](C)Oc1nc(-c2onc3c2CCC[C@@]32CCCc3sc(N)c(C#N)c32)nc2c1n(C)c(=O)n2[C@@H]1CCCOC1", "Answer Label": "Condition met"}

Exam item: Given "C[C@H](Oc1nc(-c2onc3c2CCC[C@@]32CCCc3sc(N)c(C#N)c32)nc2c1n(C)c(=O)n2[C@@]12COC[C@@H]1C2)[C@@H]1CC[C@H](C)N1C" , state whether its pIC50 is at least 7.
Marked response: Condition met

Exam item: Entry "Cc1cc2c(O[C@@H](C)[C@@H]3CCCN3C)nc(-c3onc4c3CCC[C@@]43CCCc4sc(N)c(C#N)c43)nc2n1[C@@H]1CCOC1" please
Marked response: Condition met

Exam item: Entry "C[C@H](Oc1nc(-c2onc3c2CCC[C@@]32CCCc3sc(N)c(C#N)c32)nc2c1n(C)c(=O)n2C12COC(C1)C2)[C@@H]1CCCN1C" please
Marked response: Condition met

Exam item: Entry "C[C@H](Oc1nc(-c2onc3c2CCC[C@@]32CCCc3sc(N)c(C#N)c32)nc2c1n(C)c(=O)n2[C@H]1CCC[C@@H]1O)[C@@H]1CCCN1C" please
Marked response: Condition not met

Exam item: Entry "CCn1c(=O)n([C@@H]2CCCOC2)c2nc(-c3onc4c3CCC[C@@]43CCCc4sc(N)c(C#N)c43)nc(OCC3(CN4CCCC4)CC3)c21" please
Marked response: Condition not met

* * *

target: KRAS (G12D)::SOS1 protein-protein interaction (Homo sapiens (Human), UniProt P01116, G12D); test: KRAS::SOS1 AlphaScreen binding assay (KRAS G12D); settings: GDP
Sequence (P01116 other isoform, or with tags, fused parts or gaps G12D): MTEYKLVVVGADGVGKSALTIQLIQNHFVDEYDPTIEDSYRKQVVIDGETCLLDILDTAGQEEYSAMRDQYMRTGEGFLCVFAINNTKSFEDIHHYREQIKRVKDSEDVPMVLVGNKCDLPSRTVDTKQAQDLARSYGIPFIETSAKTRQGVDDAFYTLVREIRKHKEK
Would you kindly list IC50 for each of these molecules?
Numbers only, in nM.

{"Molecule": "CO[C@H]1CCN(C)[C@@H]1[C@H](C)Oc1nc(-c2onc3c2CCC[C@@]32CCCc3sc(N)c(C#N)c32)nc2c1CN(C1COC1)C[C@]21CCOC1 [I-57]", "Numeric Result": 1}
{"Molecule": "C[C@H](Oc1nc(-c2onc3c2CCC[C@@]32CCCc3sc(N)c(C#N)c32)nc2c1cnn2[C@@H]1CCOC1)[C@@H]1CCCN1C [I-43]", "Numeric Result": 2}

Proceeding to the next molecule to report its IC50.
Exam item: What value of IC50 has been reported for the following molecule? CO[C@H]1CCN(C)[C@@H]1[C@H](C)Oc1nc(-c2onc3c2CCC[C@@]32CCCc3sc(N)c(C#N)c32)nc2c1n(C)c(=O)n2[C@@H]1CCCOC1 [I-6]
Marked response: 2
